Molecular target: cloned rat PDE10A full-length enzyme (Rattus norvegicus)
Construct: cloned rat PDE10A full-length enzyme grown in transfected Sf9 insect cells; made in house; host or cells: Sf9 insect cells
Sequence (Q9QYJ6 whole entry): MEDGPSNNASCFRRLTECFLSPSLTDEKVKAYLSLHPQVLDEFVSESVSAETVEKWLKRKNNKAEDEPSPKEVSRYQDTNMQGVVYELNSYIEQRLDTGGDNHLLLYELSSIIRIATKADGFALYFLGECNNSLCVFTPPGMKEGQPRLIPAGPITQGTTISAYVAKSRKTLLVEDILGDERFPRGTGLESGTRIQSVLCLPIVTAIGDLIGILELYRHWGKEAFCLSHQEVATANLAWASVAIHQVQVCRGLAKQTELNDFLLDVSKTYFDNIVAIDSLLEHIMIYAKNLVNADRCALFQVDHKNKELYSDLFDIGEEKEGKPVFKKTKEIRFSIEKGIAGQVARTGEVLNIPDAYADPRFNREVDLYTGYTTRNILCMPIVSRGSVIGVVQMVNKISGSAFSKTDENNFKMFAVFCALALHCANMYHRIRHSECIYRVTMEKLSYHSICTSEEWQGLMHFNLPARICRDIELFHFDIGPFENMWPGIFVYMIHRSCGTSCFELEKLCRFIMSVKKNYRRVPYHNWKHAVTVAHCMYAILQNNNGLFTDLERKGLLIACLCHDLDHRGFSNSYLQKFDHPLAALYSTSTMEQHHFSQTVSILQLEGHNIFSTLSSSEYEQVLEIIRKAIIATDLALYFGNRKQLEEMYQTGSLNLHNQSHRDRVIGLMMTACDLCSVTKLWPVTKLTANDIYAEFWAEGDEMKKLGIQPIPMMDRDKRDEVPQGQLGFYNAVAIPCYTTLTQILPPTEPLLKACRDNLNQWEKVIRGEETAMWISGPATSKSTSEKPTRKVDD
Experiment: PDE10 enzyme inhibition, [3H]cAMP scintillation proximity assay
Type: biochemical
Details: rat PDE10A from Sf9 cells, 20 nM [3H]cAMP, SPA beads, 20 minute incubation at room temperature
Where a name gives a salt, the structure may show the parent alone.
Recorded IC50 values for a group of molecules are listed next.
The answer is to be given in µM; state only the numeric part.

c1ccc(-c2cn(-c3cccnc3)c(-c3ccc(-n4c5c(c6cccnc64)CSCC5)cc3)n2)nc1 [Example 17]: 0.000912
c1ccc(-c2cn(-c3cncnc3)c(-c3ccc(-c4cccnc4)cc3)n2)nc1 [Example 72]: 0.16

get_value(item= c1ccc(-c2nc(-c3cccnc3)c(-c3ccc(-n4ccc5cccnc54)cc3)[nH]2)nc1 [Example 114] , readout=IC50) returns 0.0186

get_value(item= Cc1cn(-c2ccc(-c3nc(-c4ccccn4)cn3-c3cccnc3)cc2)cn1 [Example 41] , readout=IC50) returns 0.293

get_value(item= COc1ccc(-c2[nH]c(-c3cccs3)nc2-c2ccc(-n3ccnc3)cc2)cc1 [Example 106] , readout=IC50) returns 0.011

get_value(item= COc1nc2cccnc2n1-c1ccc(-c2nc(-c3cncs3)cn2-c2ccc(C)nc2)cc1 [Example 116] , readout=IC50) returns 0.000305

get_value(item= COc1ccc(-c2[nH]c(-c3cccs3)nc2-c2ccc(-n3ccc4cccnc43)cc2)cc1 [Example 103] , readout=IC50) returns 0.00282

get_value(item= Clc1ccc(-c2cn(-c3cncnc3)c(-c3ccc(-n4ccc5cccnc54)cc3)n2)s1 [Example 62] , readout=IC50) returns 0.0651

get_value(item= Cc1ccc(-n2cc(-c3nccs3)nc2-c2ccc(-n3c(C(F)F)nc4cccnc43)cc2)cn1 [Example 84] , readout=IC50) returns 0.00073

get_value(item= c1ccc(-n2cc(-c3nccs3)nc2-c2ccc(-n3ccc4cccnc43)cc2)nc1 [Example 24] , readout=IC50) returns 0.0134

get_value(item= c1cnc2c(c1)ccn2-c1ccc(-c2nc(-c3nccs3)cn2-c2ccncc2)cc1 [Example 25] , readout=IC50) returns 0.00446

get_value(item= Clc1cccc2c1ccn2-c1ccc(-c2nc(-c3ccccn3)cn2-c2cccnc2)cc1 [Example 39, TFA salt] , readout=IC50) returns 0.113

Origin of the recorded values: patent US20080090834A1
